# procedure.details: in vivo
# settings: Sprague-Dawley, rat, po, 5 mg/kg
quantity.measured: Cmax at 0.67 h (ng/mL)
# unit: ng/mL | format: bare number

# Cmax at 0.67 h lookup, item CCOc1ccc(Cc2cc([C@@H]3O[C@H](CO)[C@@H](O)[C@H](O)[C@H]3O)ccc2Cl)cc1
2500

* * *

# procedure.details: Oral bioavailability in Sprague-Dawley rat at 5 mg/kg
# Assay type: ADME, organism-based
# settings: in vivo
Hi there, I'd appreciate the recorded bioavailability for every entry that follows.
Number first, unit second.

# bioavailability lookup, item CCOc1ccc(Cc2cc([C@@H]3O[C@H](CO)[C@@H](O)[C@H](O)[C@H]3O)ccc2Cl)cc1 [DAPAGLIFLOZIN]
88.4%

Another: CSc1ccc(Cc2cc([C@@H]3O[C@H](CO)[C@@H](O)[C@H](O)[C@H]3O)ccc2Cl)nn1
26.1%
